Listing of recorded EC50 by entry.
TARGET_UNDER_TEST: T1, GST-YxxQ (307-545), recombinant CoAA YxxQ repeats (human, UniProt Q96PK6 307-545)
T1 construct: CoAA (RBM14) YxxQ repeats, residues 307-545; also called YxxQ repeats (307-545); recombinant GST fusion CoAA YxxQ repeats; source: recombinant GST fusion protein
T1 sequence (looked up): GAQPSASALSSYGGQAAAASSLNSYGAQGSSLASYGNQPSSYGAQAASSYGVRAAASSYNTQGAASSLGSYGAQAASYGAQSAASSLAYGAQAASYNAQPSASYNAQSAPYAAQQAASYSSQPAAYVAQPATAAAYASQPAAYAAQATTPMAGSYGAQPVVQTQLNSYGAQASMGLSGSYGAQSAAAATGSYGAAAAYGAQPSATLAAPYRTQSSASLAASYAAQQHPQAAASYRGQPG
EXPERIMENT: ELISA; GST-YxxQ or GST-AxxQ (307-545) coated at 500 ng/well on 96-well plate with BSA; biotin-labeled diheptad peptides at 6.4-20000 ng/ml overnight; streptavidin-HRP, luminescence; EC50 by sigmoidal non-linear curve fit
CONDITION_SUMMARY: both partners purified
Square brackets hold non-standard residues; d marks the D form. Ends that are not written are not given here. * marks the point of attachment. Biotin = O=C1N[C@H]2[C@H](CS[C@H]2CCCCC(=O)*)N1; Ahx = NCCCCCC(=O)O

{"BINDER": "KKSYSPTSPSYSPTSPS (phosphoserine at Ser5 of each heptad (SYSPTpSPSYSPTpSPS); biotin on the N-terminus; C6 spacer (aminocaproic acid) between KK and the peptide, two lysine residues inserted between biotin and the C6 spacer: [Biotin]-KK-C6-peptide; diheptad of the CTD heptad repeats of the RNAP II largest subunit, printed as SYSPTpSPSYSPTpSPS; also called pSer5 CTD; source: synthetic peptide) [biotin-labeled Ser5-phosphorylated CTD diheptad peptide]", "EC50": "101 nM"}
{"BINDER": "KKSYSPTSPSYSPTSPS (phosphoserine at Ser2 of each heptad (SYpSPTSPSYpSPTSPS); biotin on the N-terminus; C6 spacer (aminocaproic acid) between KK and the peptide, two lysine residues inserted between biotin and the C6 spacer: [Biotin]-KK-C6-peptide; diheptad of the CTD heptad repeats of the RNAP II largest subunit, printed as SYpSPTSPSYpSPTSPS; also called pSer2 CTD; source: synthetic peptide) [biotin-labeled Ser2-phosphorylated CTD diheptad peptide]", "EC50": "135 nM"}
{"BINDER": "KKSYSPTSPSYSPTSPS (biotin on the N-terminus; C6 spacer (aminocaproic acid) between KK and the peptide, two lysine residues inserted between biotin and the C6 spacer: [Biotin]-KK-C6-peptide; diheptad of the CTD heptad repeats (YSPTSPS) of the RNAP II largest subunit; also called CTD peptide; unphosphorylated CTD peptide; source: synthetic peptide) [biotin-labeled unphosphorylated CTD diheptad peptide]", "EC50": "1070 nM"}
{"BINDER": "Biotin-KK[Ahx]TIERMGSGVERMGPA (two lysine residues inserted between biotin and the C6 spacer: [Biotin]-KK-C6-peptide; diheptad of the IERM repeats of hnRNP M; also called IERM peptide; source: synthetic peptide) [biotin-labeled IERM diheptad peptide]", "EC50": "83 nM"}

Taken from paper doi:10.1101/671156.
